Task for the reader: assign each of the following compounds its reported EC50.
# Experimental system: UniProt Q96SW2
# Sequence (Q96SW2 whole entry): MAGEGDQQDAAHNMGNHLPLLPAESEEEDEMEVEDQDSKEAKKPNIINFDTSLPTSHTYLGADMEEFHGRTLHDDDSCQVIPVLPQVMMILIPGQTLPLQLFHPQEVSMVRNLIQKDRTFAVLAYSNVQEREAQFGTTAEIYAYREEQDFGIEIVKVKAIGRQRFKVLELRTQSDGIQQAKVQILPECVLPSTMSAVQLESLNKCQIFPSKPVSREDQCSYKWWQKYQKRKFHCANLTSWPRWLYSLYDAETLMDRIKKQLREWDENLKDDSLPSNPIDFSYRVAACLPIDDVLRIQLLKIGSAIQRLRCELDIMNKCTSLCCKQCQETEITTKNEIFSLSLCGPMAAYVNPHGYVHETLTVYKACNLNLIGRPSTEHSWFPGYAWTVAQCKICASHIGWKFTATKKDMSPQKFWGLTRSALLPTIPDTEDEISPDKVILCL
# Sequence (Q16531 whole entry partner): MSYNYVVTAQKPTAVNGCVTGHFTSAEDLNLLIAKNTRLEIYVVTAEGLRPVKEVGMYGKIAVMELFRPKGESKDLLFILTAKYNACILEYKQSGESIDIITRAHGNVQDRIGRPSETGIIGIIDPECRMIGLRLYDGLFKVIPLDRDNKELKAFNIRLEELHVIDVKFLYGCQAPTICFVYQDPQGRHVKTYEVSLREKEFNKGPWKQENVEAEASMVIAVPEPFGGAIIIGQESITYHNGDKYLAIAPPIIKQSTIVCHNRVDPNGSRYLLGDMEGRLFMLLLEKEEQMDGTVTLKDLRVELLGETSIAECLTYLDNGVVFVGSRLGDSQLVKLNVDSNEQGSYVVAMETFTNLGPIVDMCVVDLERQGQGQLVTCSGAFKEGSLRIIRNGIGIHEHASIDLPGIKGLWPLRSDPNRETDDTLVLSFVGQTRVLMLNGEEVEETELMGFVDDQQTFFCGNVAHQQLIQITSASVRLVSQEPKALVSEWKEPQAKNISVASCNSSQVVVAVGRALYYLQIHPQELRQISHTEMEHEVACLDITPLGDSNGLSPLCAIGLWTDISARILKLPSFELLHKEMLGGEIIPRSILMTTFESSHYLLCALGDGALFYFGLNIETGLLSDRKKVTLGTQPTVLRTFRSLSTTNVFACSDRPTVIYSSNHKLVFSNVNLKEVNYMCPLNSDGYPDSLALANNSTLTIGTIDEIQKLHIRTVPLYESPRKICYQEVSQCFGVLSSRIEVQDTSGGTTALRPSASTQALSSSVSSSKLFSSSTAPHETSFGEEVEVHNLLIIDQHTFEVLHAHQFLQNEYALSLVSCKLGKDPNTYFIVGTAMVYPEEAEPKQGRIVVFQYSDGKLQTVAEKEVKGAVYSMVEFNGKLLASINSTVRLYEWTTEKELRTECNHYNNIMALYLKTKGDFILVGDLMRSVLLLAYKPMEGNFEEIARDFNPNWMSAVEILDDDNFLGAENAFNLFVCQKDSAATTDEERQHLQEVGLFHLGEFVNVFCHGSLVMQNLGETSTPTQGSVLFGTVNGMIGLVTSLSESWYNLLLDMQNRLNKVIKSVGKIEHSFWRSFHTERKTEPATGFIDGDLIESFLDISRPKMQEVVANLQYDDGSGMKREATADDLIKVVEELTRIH
# Assay summary: Cereblon (CRBN) target engagement, NanoBRET TE Intracellular E3 Ligase Assay in transfected HEK-293T cells
# Run parameters: read-out: CRBN Binding EC50
The response must be a number in nM with no trailing unit.

Fill in reported EC50 for this entry: O=C1CCC(N2Cc3cc(O[C@H]4CCCC[C@@H]4N4CC(c5cccc(OC(F)(F)F)c5)C4)ccc3C2=O)C(=O)N1 (stereo partly drawn)
17

Output measured EC50 for this item: N#Cc1ccc(C2CN([C@H]3CCCC[C@@H]3Oc3ccc4c(c3)CN(C3CCC(=O)NC3=O)C4=O)C2)c(Cl)c1 (mixture of isomers) [Compound 74]
20

Identify measured EC50 associated with N#Cc1cc(Cl)ccc1C1CN([C@H]2CCCC[C@H]2Oc2ccc3c(c2)CN(C2CCC(=O)NC2=O)C3=O)C1 (stereo partly drawn)
11

Read off the recorded EC50 for N#Cc1ccc(C2CN([C@H]3CCCC[C@@H]3Oc3ccc4c(c3)CN(C3CCC(=O)NC3=O)C4=O)C2)cc1F (mixture of isomers)
8

Specify reported EC50 for the compound shown: O=C1CCC(N2Cc3cc(O[C@H]4CCC[C@@H]4N4CCC(c5ccccc5)C4)ccc3C2=O)C(=O)N1 (stereo partly drawn)
6
